# TEST_SYSTEM: Epidermal growth factor receptor (Homo sapiens)
# Sequence (P00533 whole entry): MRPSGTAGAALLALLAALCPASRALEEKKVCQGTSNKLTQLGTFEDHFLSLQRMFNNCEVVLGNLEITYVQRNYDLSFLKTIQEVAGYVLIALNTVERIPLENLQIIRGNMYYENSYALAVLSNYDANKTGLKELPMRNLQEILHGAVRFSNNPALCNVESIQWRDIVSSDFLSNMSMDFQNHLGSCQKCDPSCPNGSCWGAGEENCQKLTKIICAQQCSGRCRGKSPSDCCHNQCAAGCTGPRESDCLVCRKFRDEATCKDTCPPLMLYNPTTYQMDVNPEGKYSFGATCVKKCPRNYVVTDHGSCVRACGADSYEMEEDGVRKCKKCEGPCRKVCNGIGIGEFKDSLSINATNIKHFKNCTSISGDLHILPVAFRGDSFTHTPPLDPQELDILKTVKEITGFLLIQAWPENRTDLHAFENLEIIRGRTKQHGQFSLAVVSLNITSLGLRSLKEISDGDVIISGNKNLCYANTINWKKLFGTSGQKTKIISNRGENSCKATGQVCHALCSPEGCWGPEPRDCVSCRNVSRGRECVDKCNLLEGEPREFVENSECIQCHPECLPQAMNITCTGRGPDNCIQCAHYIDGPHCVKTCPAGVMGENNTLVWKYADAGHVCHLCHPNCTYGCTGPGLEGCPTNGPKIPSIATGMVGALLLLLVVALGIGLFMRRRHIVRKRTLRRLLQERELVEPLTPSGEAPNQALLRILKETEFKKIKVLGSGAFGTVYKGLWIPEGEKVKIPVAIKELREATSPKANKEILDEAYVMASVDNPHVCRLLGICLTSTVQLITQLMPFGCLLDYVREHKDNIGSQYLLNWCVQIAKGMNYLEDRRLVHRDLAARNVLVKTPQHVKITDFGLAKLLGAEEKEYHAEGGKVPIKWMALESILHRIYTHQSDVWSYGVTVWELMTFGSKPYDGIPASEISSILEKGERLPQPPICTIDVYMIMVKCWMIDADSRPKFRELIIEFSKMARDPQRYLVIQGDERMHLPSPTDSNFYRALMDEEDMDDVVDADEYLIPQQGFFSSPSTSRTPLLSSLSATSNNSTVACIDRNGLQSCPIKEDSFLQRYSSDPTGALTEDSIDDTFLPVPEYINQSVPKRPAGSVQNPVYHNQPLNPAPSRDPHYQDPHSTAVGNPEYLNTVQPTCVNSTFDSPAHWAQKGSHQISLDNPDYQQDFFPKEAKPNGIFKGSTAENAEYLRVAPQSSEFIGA
# PROTOCOL_TEXT: Inhibition of EGFR expressed in Sf9 cells assessed as inhibition of receptor autophosphorylation by DELFIA time resolved fluorimetry
pIC50: −log10 of the molar value.
// label = Fulfilled if pIC50 is not less than 6, otherwise Not fulfilled

Ask: Dear colleague, could you confirm whether CCCCCCCCCCCCCCCCNC(=O)COc1cc(O)c2c(=O)cc(-c3ccccc3)oc2c1 has pIC50 at or above 6?
Result: Fulfilled

Ask: Dear colleague, could you confirm whether CCCCCCCCCCNC(=O)COc1cc(O)c2c(=O)cc(-c3ccccc3)oc2c1 has pIC50 at or above 6?
Result: Not fulfilled

Ask: Dear colleague, could you confirm whether CCCCCCCCCNC(=O)COc1cc(O)c2c(=O)cc(-c3ccccc3)oc2c1 has pIC50 at or above 6?
Result: Not fulfilled

Ask: Dear colleague, could you confirm whether CCCCCCCCOC(=O)COc1cc(O)c2c(=O)cc(-c3ccccc3)oc2c1 has pIC50 at or above 6?
Result: Not fulfilled

Ask: Dear colleague, could you confirm whether CCCCCCCCCOC(=O)COc1cc(O)c2c(=O)cc(-c3ccccc3)oc2c1 has pIC50 at or above 6?
Result: Not fulfilled

Ask: Dear colleague, could you confirm whether CCCCCCCCCCCCCCCCCCNC(=O)COc1cc(O)c2c(=O)cc(-c3ccccc3)oc2c1 has pIC50 at or above 6?
Result: Fulfilled

Ask: Dear colleague, could you confirm whether CCCCCCCCCCCCOC(=O)COc1cc(O)c2c(=O)cc(-c3ccccc3)oc2c1 has pIC50 at or above 6?
Result: Not fulfilled

Ask: Dear colleague, could you confirm whether CCCCCCCCCCCCCCCCOC(=O)COc1cc(O)c2c(=O)cc(-c3ccccc3)oc2c1 has pIC50 at or above 6?
Result: Fulfilled

Ask: Dear colleague, could you confirm whether CCCCCCCCNC(=O)COc1cc(O)c2c(=O)cc(-c3ccccc3)oc2c1 has pIC50 at or above 6?
Result: Not fulfilled

Ask: Dear colleague, could you confirm whether CCCCCCCCCCCCCCCCCCCCOC(=O)COc1cc(O)c2c(=O)cc(-c3ccccc3)oc2c1 has pIC50 at or above 6?
Result: Not fulfilled

Ask: Dear colleague, could you confirm whether CCCCCCNC(=O)COc1cc(O)c2c(=O)cc(-c3ccccc3)oc2c1 has pIC50 at or above 6?
Result: Not fulfilled

Ask: Dear colleague, could you confirm whether CCCCCCCOC(=O)COc1cc(O)c2c(=O)cc(-c3ccccc3)oc2c1 has pIC50 at or above 6?
Result: Not fulfilled

Ask: Dear colleague, could you confirm whether CCCCCCOC(=O)COc1cc(O)c2c(=O)cc(-c3ccccc3)oc2c1 has pIC50 at or above 6?
Result: Not fulfilled

Ask: Dear colleague, could you confirm whether CCCCCCCCCCCCCCNC(=O)COc1cc(O)c2c(=O)cc(-c3ccccc3)oc2c1 has pIC50 at or above 6?
Result: Fulfilled

Ask: Dear colleague, could you confirm whether CCCCCCCCCCOC(=O)COc1cc(O)c2c(=O)cc(-c3ccccc3)oc2c1 has pIC50 at or above 6?
Result: Not fulfilled

Ask: Dear colleague, could you confirm whether CCCCCCCNC(=O)COc1cc(O)c2c(=O)cc(-c3ccccc3)oc2c1 has pIC50 at or above 6?
Result: Not fulfilled
